Tested target: T1, full-length human TL1A on CHO-K1 cells (human, UniProt O95150 1-251)
T1 construct: whole, on cells; also called cells over-expressing human TL1A
T1 sequence (looked up): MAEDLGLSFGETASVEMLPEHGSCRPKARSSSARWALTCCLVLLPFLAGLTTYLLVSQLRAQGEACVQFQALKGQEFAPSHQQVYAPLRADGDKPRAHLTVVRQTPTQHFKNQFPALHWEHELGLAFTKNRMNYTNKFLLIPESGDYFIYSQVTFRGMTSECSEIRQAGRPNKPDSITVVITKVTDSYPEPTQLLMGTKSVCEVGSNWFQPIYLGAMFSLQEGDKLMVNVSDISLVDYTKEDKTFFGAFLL
Assay name: flow cytometry on CHO-K1 cells stably expressing full-length human TL1A, PE anti-human IgG, median fluorescent intensity

- Binder: "TL1A-0260 (antibody, human IgG1, kappa, V domains shown, human IgG1 effector-function-minimized/kappa; also called bio-TL1A-0260 (biotinylated reporter)) VH: QVQLVQSGAEVKKPGASVKVSCKASGYDYTYYGISWVRQAPGQGLEWMGWISTYNTGTHYAPSLQGRVTMTTDTSTSTAYMELRSLRSDDTAVYYCARESYYGSGAFRGGMDVWGQGTTVTVSS VL: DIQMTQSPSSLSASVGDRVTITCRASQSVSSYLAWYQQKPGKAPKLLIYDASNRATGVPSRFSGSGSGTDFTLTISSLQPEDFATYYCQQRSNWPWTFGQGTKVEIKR"
  binding result: "binds"
